Experiment: Cytotoxicity (MTT) on PMA-differentiated THP-1 macrophages
Type: cell-based
Conditions: human, non-infected PMA-differentiated THP-1 macrophages (dTHP-1); non-infected PMA-differentiated THP-1; MTT assay after 72 h of treatment; read-out: CC50 dTHP-1
Quantity name: CC50 at 72 h (µM)
Hi! Could you send only the number? It should be in µM, unit omitted.

Q: Give the measured CC50 at 72 h of CC[C@@H](C(=O)[C@@H](C)[C@@H](O)[C@H](C)[C@@H]1O[C@@H]([C@@H](CC)C(=O)O)CC[C@@H]1C)[C@H]1O[C@]2(C=C[C@@H](O)[C@]3(CC[C@@](C)([C@H]4CC[C@](O)(CC)[C@H](C)O4)O3)O2)[C@H](C)C[C@@H]1C .
Result: 32.1

* * *

Test: in vitro
Format: cell-based
Settings: human
Quantity name: CC50 at 72 h

Record smiles | Recorded measurement
CO[C@@H]1C[C@@H](C[C@H]2CC[C@H](C)[C@H]([C@@H](C)C(=O)O)O2)O[C@]2(O[C@](C)([C@H]3CC[C@@](C)([C@@H]4O[C@@H]([C@H]5O[C@@](O)(CO)[C@H](C)C[C@@H]5C)C[C@@H]4C)O3)C[C@H]2C)[C@@H]1C | > 60 µM
CC[C@@H](C(=O)[C@@H](C)[C@@H](O)[C@H](C)[C@@H]1O[C@@H]([C@@H](CC)C(=O)O)CC[C@@H]1C)[C@H]1O[C@]2(C=C[C@@H](O)[C@]3(CC[C@@](C)([C@H]4CC[C@](O)(CC)[C@H](C)O4)O3)O2)[C@H](C)C[C@@H]1C | > 60 µM

Q: Give the measured CC50 at 72 h of CC[C@@]1([C@@H]2O[C@@H]([C@H]3O[C@@](O)(CO)[C@H](C)C[C@@H]3C)C[C@@H]2C)CC[C@H]([C@]2(C)CC[C@]3(C[C@H](O)[C@@H](C)[C@@H]([C@@H](C)[C@@H](OC)[C@H](C)C(=O)O)O3)O2)O1 .
Result: > 60 µM
